test system: Staphylococcus aureus; test: Minimum inhibitory concentration against methicillin-resistant Staphylococcus aureus (MRSA) A27223; format: functional
Below, each entry is listed alongside its reported MIC.
value type: MIC (µg/mL)

• Cc1cc(SCC2=C(C(=O)[O-])N3C(=O)[C@@H](NC(=O)CSc4cc(Cl)ccc4Cl)[C@H]3SC2)cc(CCC(=O)O)[n+]1Cc1cccs1 = 4
• C=CCCc1cc(SCC2=C(C(=O)[O-])N3C(=O)[C@@H](NC(=O)CSc4cc(Cl)ccc4Cl)[C@H]3SC2)cc(C)[n+]1CC[C@@H](O)C(=O)O = 4
• Cc1cc(SCC2=C(C(=O)[O-])N3C(=O)[C@@H](NC(=O)CSc4cc(Cl)ccc4Cl)[C@H]3SC2)cc(CCC(=O)O)[n+]1-c1cccc(O)c1 = 4
• NCCC[n+]1ccc(SCC2=C(C(=O)O)N3C(=O)[C@@H](NC(=O)CSc4cc(Cl)ccc4Cl)[C@H]3SC2)cc1CCCC(=O)O.O=C(O)C(F)(F)F.O=C([O-])C(F)(F)F = 0.5
• CSCCC[n+]1c(C)cc(SCC2=C(C(=O)[O-])N3C(=O)[C@@H](NC(=O)CSc4cc(Cl)ccc4Cl)[C@H]3SC2)cc1CCC(=O)O = 2
